Assay: Repeat once-weekly IV dose toxicokinetics in dogs
Type: in vivo
Settings: female, dog, in vivo, iv, 9.3 mg/kg, dogs F, 9.3 mg/kg once-weekly IV, Day 0; read-out: Vss

{"compound": "CC1(C)C(=CC=C2CCCC(C=CC3=[N+](CCCCS(=O)(=O)[O-])c4ccc(S(=O)(=O)O)cc4C3(C)C)=C2Oc2ccc(CC(NC(=O)c3ccc(NCc4cnc5nc(N)[nH]c(=O)c5n4)cc3)C(=O)O)cc2)N(CCCCS(=O)(=O)O)c2ccc(S(=O)(=O)O)cc21 (stereo not shown)", "Vd, L/kg": 2.38}

====

Assay: Repeat once-weekly IV dose toxicokinetics in rats
Type: in vivo
Conditions: female, rat, in vivo, iv, 3.1 mg/kg, rats F, 3.1 mg/kg once-weekly IV, Day 13

{"molecule": "CC1(C)C(=CC=C2CCCC(C=CC3=[N+](CCCCS(=O)(=O)[O-])c4ccc(S(=O)(=O)O)cc4C3(C)C)=C2Oc2ccc(CC(NC(=O)c3ccc(NCc4cnc5nc(N)[nH]c(=O)c5n4)cc3)C(=O)O)cc2)N(CCCCS(=O)(=O)O)c2ccc(S(=O)(=O)O)cc21 (stereo not shown)", "AUC(0-inf), ng·h/mL": 16600}

====

Assay: Repeat once-weekly IV dose toxicokinetics in rats
Type: in vivo
Conditions: female, rat, in vivo, iv, 46.3 mg/kg, rats F, 46.3 mg/kg once-weekly IV, Day 0; read-out: Vss

{"molecule": "CC1(C)C(=CC=C2CCCC(C=CC3=[N+](CCCCS(=O)(=O)[O-])c4ccc(S(=O)(=O)O)cc4C3(C)C)=C2Oc2ccc(CC(NC(=O)c3ccc(NCc4cnc5nc(N)[nH]c(=O)c5n4)cc3)C(=O)O)cc2)N(CCCCS(=O)(=O)O)c2ccc(S(=O)(=O)O)cc21 (stereo not shown)", "Vd (L/kg)": 1.29}

====

Assay: Repeat once-weekly IV dose toxicokinetics in dogs
Assay type: in vivo
Details: male, dog, in vivo, iv, 13.9 mg/kg, dogs M, 13.9 mg/kg once-weekly IV, Day 0; read-out: T1/2 (converted)

{"molecule": "CC1(C)C(=CC=C2CCCC(C=CC3=[N+](CCCCS(=O)(=O)[O-])c4ccc(S(=O)(=O)O)cc4C3(C)C)=C2Oc2ccc(CC(NC(=O)c3ccc(NCc4cnc5nc(N)[nH]c(=O)c5n4)cc3)C(=O)O)cc2)N(CCCCS(=O)(=O)O)c2ccc(S(=O)(=O)O)cc21 (stereo not shown)", "half-life [h]": 16.2}

====

Experiment: Phase 1a pharmacokinetics in healthy volunteers, single IV administration
Type: in vivo, human
Details: human, plasma, intravenous, 0.025 mg/kg, in 220 ml 5% dextrose, 60-min infusion; read-out: CL (converted)

{"compound": "CC1(C)C(=CC=C2CCCC(C=CC3=[N+](CCCCS(=O)(=O)[O-])c4ccc(S(=O)(=O)O)cc4C3(C)C)=C2Oc2ccc(CC(NC(=O)c3ccc(NCc4cnc5nc(N)[nH]c(=O)c5n4)cc3)C(=O)O)cc2)N(CCCCS(=O)(=O)O)c2ccc(S(=O)(=O)O)cc21 (stereo not shown)", "clearance / mL/min": 477}

====

Assay: Repeat once-weekly IV dose toxicokinetics in dogs
Format: in vivo
Details: female, dog, in vivo, iv, 9.3 mg/kg, dogs F, 9.3 mg/kg once-weekly IV, Day 0
measured-quantity: AUC(0-inf)

{"molecule": "CC1(C)C(=CC=C2CCCC(C=CC3=[N+](CCCCS(=O)(=O)[O-])c4ccc(S(=O)(=O)O)cc4C3(C)C)=C2Oc2ccc(CC(NC(=O)c3ccc(NCc4cnc5nc(N)[nH]c(=O)c5n4)cc3)C(=O)O)cc2)N(CCCCS(=O)(=O)O)c2ccc(S(=O)(=O)O)cc21 (stereo not shown)", "measured-quantity": "AUC(0-inf)", "value": "69300 ng·h/mL"}
